apparent inhibition (interference) reference
assay: colorimetric readout interference by compounds, confirmation, artefact control for Scp-1 inhibitor project, biochemical, single concentration (AID 540313); conditions: Colorimetric interference counterscreen, malachite green absorbance 630 nm; at 20 µM; stronger effect = higher value;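 further: compounds added after enzyme reaction finished so only phosphate colour detection is probed; plate controls were DMSO wells with completed Scp-1 reaction for no effect and substrate wells lacking enzyme for full effect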
Fewer than 10 of roughly 2,500 compounds were called active. A selection follows.
Metric name: apparent inhibition (interference)

Compound | Metric name | Observed value
Cc1c(CCC(=O)O)c(=O)oc2c(C)c(OCc3ccccc3Cl)ccc12 | apparent inhibition (interference) | -5.7% (inactive)
C[N+](C)(C)CCNC(=O)c1cc[n+](Cc2ccccc2)c(/C=N/O)c1 | apparent inhibition (interference) | -12% (inactive)
Cc1nnc(SCC(=O)Nc2ccc(S(=O)(=O)Nc3ccc(Cl)nn3)cc2)s1 | apparent inhibition (interference) | -18.9% (inactive)
CCc1ccc(NC(=O)CS(=O)CC(=O)NCCCc2ccccc2)cc1 (stereo not given) | apparent inhibition (interference) | -6.8% (inactive)
CC1CCN(c2ccc(S(=O)(=O)Nc3cc(C(=O)O)cc(C(=O)O)c3)cc2[N+](=O)[O-])CC1 | apparent inhibition (interference) | -19.7% (inactive)
